System: PC-9 cells (EGFR Ex19Del)
Test: Potency Assay: pERK (SOS1 pERK IC50 Assay, AlphaLISA SureFire Ultra p-ERK1/2)
Format: cell-based
Conditions: Homo sapiens; PC-9 cells (EGFR Ex19Del), 1 hour incubation, AlphaLISA p-ERK1/2; read-out: SOS1 pERK IC50
REPORTED ENDPOINT: IC50

Past entries and their recorded results:
[[record]]
molecule = "C[C@@H](Nc1nc(Cl)nc2c1C[C@@H](N1CCOCC1)CC2)c1cc(N)cc(C(F)(F)F)c1 (single isomer, unassigned) [Example 170]"
target_desc = "PC-9 cells (EGFR Ex19Del)"
endpoint_value = "< 1000 nM"

[[record]]
molecule = "C[C@@H](Nc1nc(Cl)nc2c1CN(C(=O)C13OCCCC1C3(F)F)CC2)c1cc(N)cc(C(F)(F)F)c1 (stereo partly shown) [Example 214]"
target_desc = "PC-9 cells (EGFR Ex19Del)"
endpoint_value = "> 1000 nM"

[[record]]
molecule = "C[C@@H](Nc1nc(Cl)nc2c1CN(c1ncccc1N1CCOCC1)CC2)c1cc(N)cc(C(F)(F)F)c1 [Example 186]"
target_desc = "PC-9 cells (EGFR Ex19Del)"
endpoint_value = "> 1000 nM"

[[record]]
molecule = "C[C@@H](Nc1nc(Cl)nc2c1CN(C(=O)N1CCNc3ccncc31)C2)c1cccc(C(F)(F)F)c1 [Example 375]"
target_desc = "PC-9 cells (EGFR Ex19Del)"
endpoint_value = "< 1000 nM"

[[record]]
molecule = "C[C@@H](Nc1nc(Cl)nc2c1CN(C(=O)C1(C)CN(CCF)C1)C2)c1cccc(C(F)F)c1F [Example 342]"
target_desc = "PC-9 cells (EGFR Ex19Del)"
endpoint_value = "< 1000 nM"

[[record]]
molecule = "C[C@@H](Nc1nc(Cl)nc2c1CN(C(=O)C1(F)CNC1)C2)c1cc(N)cc(C(F)(F)F)c1 [Example 263]"
target_desc = "PC-9 cells (EGFR Ex19Del)"
endpoint_value = "< 1000 nM"


For the next question, use this molecule.
Dear colleague, please send me the reported IC50 for C[C@@H](Nc1nc(Cl)nc2c1CN(C(=O)C1(CO)COC1)CC2)c1cc(N)cc(C(F)(F)F)c1 [Example 225] when you can.
< 1000 nM
